Reference for the values: ChEMBL document CHEMBL1157185

- Test Protocol: Inhibition of MT3 melatonin binding site from hamster brain membrane
- Design: species or system Cricetinae
Provide the recorded pKi for the entries that follow.
One number for each entry, as −log10 of the molar value.

| Smiles Representation | pKi |
| --- | --- |
| COc1ccc2c(c(CCNC(C)=O)c(I)n2C)c1[N+](=O)[O-] | 9.52 |

Enquiry: # lookup: pKi of COc1cc2c(cc1OC)-c1c(c3cc(O)ccc3n1C)C2=O
Return: 9.72

----------
- Test Protocol: Selectivity ratio, IC50 for human MT1 melatonin receptor to IC50 for hamster MT3 melatonin binding site
Rule: Ratio IC50 below 200 gives true. Equal to or above 200 gives false.

| Smiles Representation | Category |
| --- | --- |
| COC(=O)Nc1ccc2occ(CCNC(=O)C(C)C)c2c1 | false |
| COC(=O)Nc1ccc2occ(CCNC(=O)C3CC3)c2c1 | false |
| COC(=O)c1ccc2occ(CCNC(=O)C3CCCC3)c2c1 | false |
| C=CCC(=O)NCCc1coc2ccc(NC(=O)OC)cc12 | false |

Next compound, please.
Enquiry: Does CNC(=O)c1ccc2occ(CCNC(C)=O)c2c1 have Ratio IC50 strictly under 200?
Return: true

----------
- Test Protocol: Inhibition of MT3 melatonin binding site from hamster brain membrane
- Set-up: species or system Cricetinae
Recorded Endpoint: pIC50
Give bare numbers, as −log10 of the molar value.

| Molecule | pIC50 |
| --- | --- |
| COc1cc2nc(N3CCN(C(=O)c4ccco4)CC3)nc(N)c2cc1OC [PRAZOSIN] | 8.11 |

Please state, for each entry, its recorded pIC50.
1. COC(=O)Nc1ccc2occ(CCNC(C)=O)c2c1
2. CC(=O)NCCc1coc2ccc(C(N)=O)cc12
3. NC(=O)c1ccc2occ(CCNC(=O)c3ccco3)c2c1
4. CNC(=O)c1ccc2occ(CCNC(=O)C3CC3)c2c1

Return:
1. 7.80
2. 7.09
3. 7.17
4. 7.39

----------
- Assayed System: UniProt P49286
- Sequence (P49286 whole entry): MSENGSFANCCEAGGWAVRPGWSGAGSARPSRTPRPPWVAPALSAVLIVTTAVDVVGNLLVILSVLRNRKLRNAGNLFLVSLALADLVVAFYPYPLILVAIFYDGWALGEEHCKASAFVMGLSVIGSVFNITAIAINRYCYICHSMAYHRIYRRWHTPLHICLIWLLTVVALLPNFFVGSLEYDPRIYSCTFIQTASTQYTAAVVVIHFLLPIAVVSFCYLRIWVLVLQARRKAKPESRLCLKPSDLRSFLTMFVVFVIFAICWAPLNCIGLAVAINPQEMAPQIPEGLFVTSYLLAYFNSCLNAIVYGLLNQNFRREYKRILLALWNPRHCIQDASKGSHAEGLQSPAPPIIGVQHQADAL
- Test Protocol: Displacement of 2-[125I]iodomelatonin from human MT2 receptor expressed in HEK293 cells
Recorded Endpoint: IC50

Examples from the recorded data:
| Smiles Representation | IC50 |
| --- | --- |
| COC(=O)Nc1ccc2occ(CCNC(=O)C(C)C)c2c1 | 4.58 µM |
| COC(=O)Nc1ccc2[nH]cc(CCNC(C)=O)c2c1 | 4 µM |
| COC(=O)c1ccc2occ(CCNC(=O)C3CCCC3)c2c1 | 0.389 µM |
| CNC(=O)c1ccc2occ(CCNC(=O)C3CC3)c2c1 | > 10 µM |
| CNC(=O)c1ccc2occ(CCNC(C)=O)c2c1 | > 1 µM |

For the 8 compounds below, give their IC50 values.
1. COC(=O)Nc1ccc2occ(CCNC(=O)c3ccco3)c2c1
2. C=CCC(=O)NCCc1coc2ccc(NC(=O)OC)cc12
3. CC(=O)NCCc1coc2ccc(NC(=O)C(F)(F)F)cc12
4. NC(=O)c1ccc2occ(CCNC(=O)c3ccco3)c2c1
5. CNC(=O)c1ccc2occ(CCNC(=O)C3CCCC3)c2c1
6. COC(=O)Nc1ccc2occ(CCNC(=O)C3CCCC3)c2c1
7. COC(=O)Nc1ccc2occ(CCNC(=O)C3CC3)c2c1
8. COC(=O)c1ccc2occ(CCNC(=O)c3ccco3)c2c1

Return:
["> 10 µM", "0.56 µM", "2 µM", "> 10 µM", "> 10 µM", "5.32 µM", "5.9 µM", "> 10 µM"]

Enquiry: Recorded IC50 for CC(=O)NCCc1coc2ccc(C(N)=O)cc12 , please?
Return: 1 µM

----------
Give pIC50 for every item shown.
- Assayed System: Melatonin receptor type 1A (Homo sapiens, UniProt P48039)
- Sequence (P48039 whole entry): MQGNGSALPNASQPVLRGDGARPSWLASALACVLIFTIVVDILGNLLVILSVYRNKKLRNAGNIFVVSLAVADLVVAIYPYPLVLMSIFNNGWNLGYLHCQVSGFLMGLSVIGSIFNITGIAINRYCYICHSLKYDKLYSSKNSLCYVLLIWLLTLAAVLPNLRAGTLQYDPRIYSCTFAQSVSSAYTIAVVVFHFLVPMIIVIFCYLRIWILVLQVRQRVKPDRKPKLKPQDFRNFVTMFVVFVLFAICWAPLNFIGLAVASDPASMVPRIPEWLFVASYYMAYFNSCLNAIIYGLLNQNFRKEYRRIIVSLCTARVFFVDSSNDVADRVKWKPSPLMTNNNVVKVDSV
- Test Protocol: Displacement of 2-[125I]iodomelatonin from human MT1 receptor expressed in HEK293 cells
Give bare numbers, as −log10 of the molar value.

Past entries and their recorded results:
| Smiles Representation | Assayed System | Val |
| --- | --- | --- |
| COC(=O)Nc1ccc2occ(CCNC(=O)C3CC3)c2c1 | Melatonin receptor type 1A (Homo sapiens, UniProt P48039) | 5.09 |
| C=CCC(=O)NCCc1coc2ccc(NC(=O)OC)cc12 | Melatonin receptor type 1A (Homo sapiens, UniProt P48039) | 5.57 |
| COC(=O)c1ccc2occ(CCNC(=O)C3CCCC3)c2c1 | Melatonin receptor type 1A (Homo sapiens, UniProt P48039) | 5.41 |
| COC(=O)Nc1ccc2[nH]cc(CCNC(C)=O)c2c1 | Melatonin receptor type 1A (Homo sapiens, UniProt P48039) | 6.00 |
| CNC(=O)c1ccc2occ(CCNC(=O)C3CC3)c2c1 | Melatonin receptor type 1A (Homo sapiens, UniProt P48039) | 5.91 |

# per-item lookup of pIC50; items listed below
1. CNC(=O)c1ccc2occ(CCNC(C)=O)c2c1
2. COC(=O)Nc1ccc2occ(CCNC(=O)C(C)C)c2c1
3. COC(=O)Nc1ccc2occ(CCNC(=O)C3CCCC3)c2c1

Return:
6.72
5.27
5.27

----------
- Test Protocol: Selectivity ratio, IC50 for human MT1 melatonin receptor to IC50 for hamster MT3 melatonin binding site
Please go through the items and note down their Ratio IC50.

Examples with answers:
| Smiles Representation | Val |
| --- | --- |
| NC(=O)c1ccc2occ(CCNC(=O)c3ccco3)c2c1 | > 149 |
| COC(=O)Nc1ccc2occ(CCNC(=O)c3ccco3)c2c1 | > 178 |

Could you tell me Ratio IC50 for each of these compounds? They are listed below.
1. CNC(=O)c1ccc2occ(CCNC(=O)C3CC3)c2c1
2. CC(=O)NCCc1coc2ccc(C(N)=O)cc12
3. COC(=O)c1ccc2occ(CCNC(=O)c3ccco3)c2c1

Return:
["> 29", "> 122", "> 188"]

----------
Please respond with reported IC50 for every item in the list.
- Test Protocol: Inhibition of MT3 melatonin binding site from hamster brain membrane
- Design: species or system Cricetinae
Give bare numbers, in nM.

Example results:
| Smiles Representation | IC50, nM |
| --- | --- |
| CNC(=O)c1ccc2occ(CCNC(C)=O)c2c1 | 12 |
| COC(=O)c1ccc2occ(CCNC(=O)C(C)C)c2c1 | 65 |
| COc1ccc2occ(CCNC(C)=O)c2c1 | 64 |
| COC(=O)c1ccc2occ(CCNC(=O)c3ccco3)c2c1 | 53 |
| COC(=O)Nc1ccc2occ(CCNC(=O)C(C)C)c2c1 | 23 |

Below are some molecules; for each one, tell me its IC50.
1. COC(=O)c1ccc2occ(CCNC(C)=O)c2c1
2. COC(=O)Nc1ccc2occ(CCNC(=O)c3ccco3)c2c1
3. COC(=O)c1ccc2occ(CCNC(=O)C3CCCC3)c2c1
4. C=CCC(=O)NCCc1coc2ccc(NC(=O)OC)cc12
5. COC(=O)Nc1ccc2occ(CCNC(=O)C3CC3)c2c1

Return:
1: 14; 2: 56; 3: 18; 4: 11; 5: 24
